Reported values of IC50 for individual entries
Biological target: NMDA receptor
Experiment: Competitive radioligand binding at NMDA receptor ([3H] MK801), rat forebrain membranes
Details: 0.2 nM [3H] MK801, reflects free base activity

- smiles.code: "COCCOCCOc1cnccc1Nc1ccc2c(c1)[C@@]13CCCC[C@H]1[C@@H](C2)N(C)CC3"
  target.under.test: "NMDA receptor"
  IC50: "1 to 10 µM"
- smiles.code: "COCCNc1cc2c(cc1[N+](=O)[O-])C[C@@H]1[C@@H]3CCCC[C@]23CCN1C"
  target.under.test: "NMDA receptor"
  IC50: "> 10 µM"
- smiles.code: "COCCOCCOCCOCCOCCOCC(=O)Nc1ccc2c(c1)[C@@]13CCCC[C@H]1[C@@H](C2)N(C)CC3"
  target.under.test: "NMDA receptor"
  IC50: "> 10 µM"
- smiles.code: "COCCOCCOCCO[C@H]1CCC[C@H]2[C@H]3Cc4ccc(O)cc4[C@@]12CCN3C"
  target.under.test: "NMDA receptor"
  IC50: "> 10 µM"
- smiles.code: "CN1CC[C@]23CCCC[C@H]2[C@H]1Cc1ccc(Nc2cccnn2)cc13"
  target.under.test: "NMDA receptor"
  IC50: "1 to 10 µM"
- smiles.code: "COCCNC(=O)Nc1ccc2c(c1)[C@@]13CCCC[C@H]1[C@@H](C2)N(C)CC3"
  target.under.test: "NMDA receptor"
  IC50: "> 10 µM"
- smiles.code: "CN1CC[C@]23CCCC[C@H]2[C@H]1Cc1cc2ccc(=O)[nH]c2cc13"
  target.under.test: "NMDA receptor"
  IC50: "> 10 µM"
